Below, each entry is listed with its recorded z-score.
- assay-remarks: compound effects on lung adenocarcinoma cell viability – A549, calcein-AM fluorescence, 48 h, basal, profiling panel (AID 1162); note: test concentration not given here
- stated-conditions: higher = more signal
assay-readout: z-score

compound=CN(C)CCCN1C(=O)[C@@]2(c3ccc([N+](=O)[O-])cc3)CC(=O)N(C3CCCCC3)[C@@H]2c2ccc(CO)cc21 assay_readout=z-score observed_measurement=-0.397
compound="CN1C(=O)C2C=CC(C(O)C=Cc3ccc([N+](=O)[O-])cc3)N(N3CCCCC3)C2C1=O (stereo not given)" assay_readout=z-score observed_measurement=-1.1
compound="CC1CC/C=C\\[C@H]2OC34C=CCN(Cn5nnc6ccccc65)C(=O)[C@H]3N(CCCO)C(=O)[C@@H]4C2C(=O)O1 (stereo not given in full)" assay_readout=z-score observed_measurement=-0.677
compound="CC(=O)n1cc(C(O)C2C=CC3C(=O)N(c4ccccc4)C(=O)C3N2Nc2ccc(C#N)cc2)c2ccccc21 (stereo not given)" assay_readout=z-score observed_measurement=1.38
compound="C=C(C)[C@@H]1CC=C(C(O)C2C=CC3C(=O)N(Cc4ccccc4)C(=O)C3N2n2cnnc2)CC1 (stereo not given in full)" assay_readout=z-score observed_measurement=-0.675
